Documented koff across a set of binders
Molecular target: T1, recombinant hSIRPb-His (Antibodies-online, reference ABIN3077231) (human, UniProt Q5TFQ8 30-371)
T1 construct: also called SIRPb-His (Blitz); not shown: His tag
T1 sequence (Q5TFQ8 30-371): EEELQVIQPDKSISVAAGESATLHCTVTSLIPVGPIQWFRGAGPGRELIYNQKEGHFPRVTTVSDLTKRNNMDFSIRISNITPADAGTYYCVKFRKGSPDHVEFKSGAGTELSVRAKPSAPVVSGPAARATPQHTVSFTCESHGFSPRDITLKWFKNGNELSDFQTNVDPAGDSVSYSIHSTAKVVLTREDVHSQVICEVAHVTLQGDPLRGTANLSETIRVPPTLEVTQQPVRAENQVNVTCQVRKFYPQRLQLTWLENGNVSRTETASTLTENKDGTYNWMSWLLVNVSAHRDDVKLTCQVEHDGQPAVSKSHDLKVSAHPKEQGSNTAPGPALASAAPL
Experiment: BLI (Blitz); SIRPb-His on Ni-NTA biosensor, antibody at 20 ug/ml [B, table A]
Report the figure in s⁻¹ without appending any unit label.

Here is how some binders turned out for koff.
binder	unit tag	koff
HFLB (antibody, human IgG4 S228P, kappa, V domains shown, humanized 18D5 variant) VH: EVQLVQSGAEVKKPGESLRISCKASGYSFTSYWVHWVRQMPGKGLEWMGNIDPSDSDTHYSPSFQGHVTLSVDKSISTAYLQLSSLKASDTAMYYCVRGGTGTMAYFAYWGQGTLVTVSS VL: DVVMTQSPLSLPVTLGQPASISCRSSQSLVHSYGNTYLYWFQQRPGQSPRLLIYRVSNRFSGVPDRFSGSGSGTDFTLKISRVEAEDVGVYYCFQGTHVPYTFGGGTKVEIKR	s⁻¹	0.00174
Kwar23 (antibody, V domains shown) VH: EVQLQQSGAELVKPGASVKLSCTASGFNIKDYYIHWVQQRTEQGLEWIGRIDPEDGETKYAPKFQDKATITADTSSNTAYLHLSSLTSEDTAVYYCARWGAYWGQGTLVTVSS VL: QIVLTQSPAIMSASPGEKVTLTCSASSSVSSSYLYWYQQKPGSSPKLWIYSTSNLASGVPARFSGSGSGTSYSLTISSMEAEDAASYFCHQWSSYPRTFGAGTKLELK	s⁻¹	0.000794

Input line: Find the recorded koff belonging to HFLA (antibody, human IgG4 S228P, kappa, V domains shown, humanized 18D5 variant) VH: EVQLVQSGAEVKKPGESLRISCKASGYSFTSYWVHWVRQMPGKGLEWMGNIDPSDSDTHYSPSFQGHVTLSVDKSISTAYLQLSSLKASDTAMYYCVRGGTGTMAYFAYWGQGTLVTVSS VL: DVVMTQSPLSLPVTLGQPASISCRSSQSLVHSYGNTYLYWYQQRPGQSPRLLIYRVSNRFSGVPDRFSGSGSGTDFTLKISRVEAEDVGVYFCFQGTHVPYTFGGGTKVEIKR and report it.
Output line: 0.00192
